Residues, ends and D or L forms follow the SMILES beside them.
PTPN11-N SH2 domain (Homo sapiens, UniProt Q06124) Kd data
Sequence (Q06124 6-102 limits assumed): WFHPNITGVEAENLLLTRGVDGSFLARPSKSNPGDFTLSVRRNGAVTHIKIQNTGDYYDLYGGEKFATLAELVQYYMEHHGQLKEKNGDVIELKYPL
Supply the numeric figure in µM, leaving out any unit text.

{"columns": ["Compound", "Assay target", "Reported metric", "Value measured"],
 "data": [
  ["CSCC[C@H](NC(=O)[C@H](CC(C)C)NC(=O)[C@H](C)NC(=O)[C@H](CCCNC(=N)N)NC(=O)[C@H](Cc1ccc(OP(=O)(O)O)cc1)NC(=O)[C@H](Cc1ccccc1)NC(=O)[C@H](CC(N)=O)NC(=O)[C@H](CO)NC(=O)[C@@H](N)CC(=O)O)C(=O)N[C@@H](CC(=O)O)C(=O)N[C@@H](CCC(=O)O)C(=O)N[C@@H](CCC(=O)O)C(=O)N[C@@H](CC(=O)O)C(=O)O [ErbB1 998 13-mer] (HELM PEPTIDE1{D.S.N.F.[O=C([C@H](Cc1ccc(OP(=O)(O)O)cc1)N[*:1])[*:2]].R.A.L.M.D.E.E.D}$$$$V2.0)", "PTPN11-N SH2 domain (Homo sapiens, UniProt Q06124)", "Kd", 13.1],
  ["CC(C)[C@H](NC(=O)[C@H](CC(=O)O)NC(=O)[C@@H]1CCCN1C(=O)[C@H](CCC(N)=O)NC(=O)[C@H](CC(N)=O)NC(=O)[C@@H](NC(=O)[C@H](Cc1ccc(OP(=O)(O)O)cc1)NC(=O)[C@H](CCC(=O)O)NC(=O)[C@@H]1CCCN1C(=O)[C@H](CCC(N)=O)NC(=O)[C@@H]1CCCN1)C(C)C)C(=O)N[C@@H](CCCNC(=N)N)C(=O)N[C@@H](CC(=O)O)C(=O)O [ErbB2 1139 13-mer] (HELM PEPTIDE1{P.Q.P.E.[O=C([C@H](Cc1ccc(OP(=O)(O)O)cc1)N[*:1])[*:2]].V.N.Q.P.D.V.R.D}$$$$V2.0)", "PTPN11-N SH2 domain (Homo sapiens, UniProt Q06124)", "Kd", 8.86],
  ["CC[C@H](C)[C@H](NC(=O)[C@@H]1CCCN1C(=O)[C@@H](NC(=O)[C@H](CCCCN)NC(=O)[C@H](C)NC(=O)[C@H](CCC(=O)O)NC(=O)[C@H](CO)NC(=O)[C@H](Cc1ccc(OP(=O)(O)O)cc1)NC(=O)[C@H](CC(C)C)NC(=O)[C@H](CC(C)C)NC(=O)[C@H](CCC(N)=O)NC(=O)[C@@H](N)CCCCN)[C@@H](C)O)C(=O)N[C@@H](CC(=O)O)C(=O)O [ErbB3 868 13-mer] (HELM PEPTIDE1{K.Q.L.L.[O=C([C@H](Cc1ccc(OP(=O)(O)O)cc1)N[*:1])[*:2]].S.E.A.K.T.P.I.D}$$$$V2.0)", "PTPN11-N SH2 domain (Homo sapiens, UniProt Q06124)", "Kd", 3.61]
]}

In the following, a different compound is considered.
Request: What is its Kd for PTPN11-N SH2 domain (Homo sapiens, UniProt Q06124)? Entry: CSCC[C@H](NC(=O)[C@H](Cc1ccc(OP(=O)(O)O)cc1)NC(=O)[C@H](CCC(=O)O)NC(=O)[C@H](Cc1ccc(O)cc1)NC(=O)CNC(=O)[C@@H](N)CC(C)C)C(=O)N[C@@H](CC(=O)O)C(=O)N[C@H](C(=O)NCC(=O)N[C@@H](CO)C(=O)N[C@@H](CC(=O)O)C(=O)N[C@@H](CC(C)C)C(=O)N[C@@H](CC(=O)O)C(=O)O)C(C)C [ErbB3 1224 13-mer] (HELM PEPTIDE1{L.G.Y.E.[O=C([C@H](Cc1ccc(OP(=O)(O)O)cc1)N[*:1])[*:2]].M.D.V.G.S.D.L.D}$$$$V2.0)
Result: 4.8
